Please find below Ki measurements for 5-hydroxytryptamine receptor 2A (Rattus norvegicus, UniProt P14842), combined from several publications.
Give bare numbers, in µM.

In the examples that follow, each entry is paired with its recorded Ki.
- O=c1oc2cc(OCCCCN3CCN(c4ccccc4)CC3)ccc2c2c1CCC2: 0.0592
- O=c1ccc(OCCCN2CCN(c3ccccc3)CC2)nn1-c1ccc(Cl)c(Cl)c1: 0.359
- Cc1cc(=O)oc2cc(OCCCCN3CCN(c4cccc(C(F)(F)F)c4)CC3)ccc12: 0.157
- O=C(O)C1CN(C2CC[C@]3(Cc4ccccc4Cc4ccccc43)C2)C1 (some centres not stated): 0.0331

Return reported Ki values for all items listed beneath this line.
1. CC1(c2ccccc2)NC(=O)N(CCCN2CCN(c3ccccc3)CC2)C1=O (racemic)
2. Fc1ccc(N2CCN(Cc3cnn(-c4ccccc4)c3)CC2)cc1
3. CCN(CCCCCN1CCC2CCCCC2C1)S(=O)(=O)c1cccc2cccnc12 (configuration not stated)
4. C/N=C1\NC(=O)/C(=C/c2c[nH]c3ccc(Br)cc23)N1
5. CN1C(=N)N/C(=C/c2c[nH]c3ccc(Br)cc23)C1=O
6. Clc1ccc(-n2cc(CN3CCN(c4ccccc4)CC3)cn2)cc1
7. COc1ccccc1N1CCN(CC2CC(=O)c3c([nH]c4ccccc34)C2)CC1 (configuration not stated)
8. O=C(CCCN1CCN2CC3C(CC2C1)c1ccccc1N3CCCC(=O)c1ccc(F)cc1)c1ccc(F)cc1 (configuration not stated)

1: 0.069; 2: 1.04; 3: 1.79; 4: 0.676; 5: 0.279; 6: 6.82; 7: 0.631; 8: 0.00935

Return reported Ki values for all items listed beneath this line.
1. COc1ccccc1N1CCN(CCCNc2nc3nc4c(c(=O)n(C)c(=O)n4C)n3cc2Br)CC1
2. CCCc1ccccc1N1CCN(CCCCCC(=O)NC2CCCc3ccccc32)CC1 (configuration not stated)
3. O=C(CCCN1CCN(CCC2CC3=CC=CC3C2=O)CC1)c1ccc(F)cc1 (configuration not stated)
4. O=C(NCCCN1CCN(c2ccccc2)CC1)c1ccccn1
5. O=C1C2CCCN2C(=O)N1CCCCNCCOc1ccc2ccccc2c1 (configuration not stated)
6. Cn1c(=O)c2c([nH]c(=O)n2CCCCN2CCN(c3cccc(Cl)c3)CC2)n(C)c1=O
7. FC(F)(F)c1cccc(N2CCN(CCCOc3ccc4[nH]c(=S)[nH]c4c3)CC2)c1
8. O=C(O)C1(F)CCN(C2CC[C@]3(Cc4ccccc4Cc4ccccc43)C2)CC1 (some centres not stated)

0.88
3.19
0.0427
0.277
0.422
0.06
0.316
0.355

Return reported Ki values for all items listed beneath this line.
1. COc1ccccc1N1CCN(CCNC(=O)[C@@H]2CCC(=O)N2C(=O)c2ccccc2)CC1
2. O=C(Nc1ccc(Cl)cc1)N1CCC(CN2CCC(c3noc4cc(F)ccc34)CC2)CC1
3. COc1c(OCCF)cccc1C(O)C1CCN(CCc2ccc(F)cc2)CC1 (configuration not stated)
4. CN1CCN(c2nccc(-c3ccccc3)n2)CC1
5. O=C1C2C3C=CC(C3)C2C(=O)N1OCCCN1CCN(c2cccc3ccccc23)CC1 (configuration not stated)
6. CN1CCc2ccc(OCCCN3CCN(c4ccc(Cl)cc4)CC3)cc2C1=O

1: 8.71; 2: 0.0068; 3: 0.009; 4: 2.1; 5: 0.0918; 6: 0.589

Using the record for COc1ccccc1N1CCN(CCCCN2C(=O)NC3(CCCCC3c3ccccc3)C2=O)CC1 (configuration not stated) , report its Ki.
0.498

###

Please find below Ki measurements for 5-hydroxytryptamine receptor 2A (Rattus norvegicus), combined from several publications.
Give bare numbers, in nM.

In the examples that follow, each entry is paired with its recorded Ki.
* COc1ccccc1N1CCN(CCNC(=O)[C@@H]2CCC(=O)N2C(=O)C2CCCCC2)CC1 | 14900
* Fc1ccc(NC(=S)Nc2cccc(C(F)(F)F)c2)cc1Cl | 0.043
* CN1CCCC[C@H]1CCN1c2ccccc2Sc2ccc([S@](C)=O)cc21 | 414
* COc1ccc2[nH]cc(C3CCN(CCCN4C(=O)CC(c5c[nH]c6ccccc56)C4=O)CC3)c2c1 (racemic) | 11600
* CN(C)c1ccccc1N1CCN(CCCCCC(=O)NC2CCCc3ccccc32)CC1 (stereo not given) | 559

Return reported Ki values for all items listed beneath this line.
1. COc1ccc(CN2CCC(NC(=O)c3ccc4ccccc4c3)CC2)cc1
2. O=C1NC2(CCCCC2c2ccccc2)C(=O)N1CCCCN1CCN(c2cccc(Cl)c2)CC1 (stereo not given)
3. O=S(=O)(NCCCCN1CCN(c2ccc(Cl)cc2)CC1)c1cncc2ccccc12
4. CCc1c(C)[nH]c2c1C(=O)CC(CN1CCN(CCCC(=O)c3ccc(F)cc3)CC1)C2 (stereo not given)
5. COc1ccccc1N1CCN(CCCCOc2ccc3c(C)cc(=O)oc3c2Cl)CC1

1: 151; 2: 171; 3: 211; 4: 398; 5: 588

###

Please find below Ki measurements for 5-hydroxytryptamine receptor 2A (Rattus norvegicus), combined from several publications.
One number for each entry, in nM.

- Cn1c(=O)c2c([nH]c(=O)n2CCCN2CCc3ccccc3C2)n(C)c1=O: 7960
- O=c1ccc(OCCCN2CCN(c3nsc4ccccc34)CC2)nn1-c1ccc(Cl)c(Cl)c1: 75.1
- COc1ccccc1N1CCN(CCCn2c(=O)c3ccccc3c(=O)n2-c2ccccc2)CC1: 302
- O=C(CCCN1CCC(c2noc3cc(F)ccc23)CC1)c1cc2c3c(c1F)CCC(=O)N3CC2: 17.9
- COc1ccc(OC(CCN2CCN(c3noc4ccccc34)CC2)c2ccccc2)cc1 (stereo not given): 18.9

Return reported Ki values for all items listed beneath this line.
1. CCc1cc(=O)oc2cc(OCCCCN3CCC(c4noc5cc(F)ccc45)CC3)ccc12
2. CCCn1ccc2cc3c(cc21)CCN3C(=O)Nc1cccnc1

1: 51.3; 2: 3160

###

Please find below pKi measurements for 5-hydroxytryptamine receptor 2A (Rattus norvegicus), combined from several publications.
Give bare numbers, as −log10 of the molar value.

In the examples that follow, each entry is paired with its recorded pKi.
• Cn1c2c(c3ccccc31)CN(CCCCCc1ccccc1)CC2 = 6.89
• O=C1/C(=C/c2cccnc2)c2ccccc2N1CCCN1CCN(c2cccc(Cl)c2)CC1 = 8.15
• NCCc1cccc2c1ccn2S(=O)(=O)c1ccccc1 = 8.32

Using the record for "CC1(CN)c2ccccc2Cc2ccccc21" , report its pKi.
7.19

###

Please find below pKi measurements for 5-hydroxytryptamine receptor 2A (Rattus norvegicus), combined from several publications.
Numbers only, as −log10 of the molar value.

In the examples that follow, each entry is paired with its recorded pKi.
• O=c1ccc(OCCCN2CCN(c3ccccc3Cl)CC2)nn1-c1ccc(Cl)c(Cl)c1 = 6.92
• O=S(=O)(c1cccs1)N1CCC(CN2CCC(c3noc4cc(F)ccc34)CC2)CC1 = 6.34
• COc1ccccc1N1CCN(CCCCOc2cc3oc(=O)c4c(c3cc2Cl)CCC4)CC1 = 7.44
• COc1ccccc1N1CCN(CCCNS(=O)(=O)c2ccc3ccccc3c2)CC1 = 7.07
• CN1C(=N)N/C(=C/c2c[nH]c3cc(Br)ccc23)C1=O = 5.38
• O=S1(=O)c2cccc3cccc(c23)N1CCCN1CCN(c2cccc(F)c2)CC1 = 7.74
• N=C1NC(=O)/C(=C\c2c[nH]c3cccc(Br)c23)N1 = 5.34
• O=C(c1ccc([N+](=O)[O-])cc1)N1CCC(CN2CCC(c3noc4cc(F)ccc34)CC2)CC1 = 7.14

Using the record for "O=[N+]([O-])c1cccc(S(=O)(=O)N2CCC(CN3CCC(c4noc5cc(F)ccc45)CC3)CC2)c1" , report its pKi.
6.87

###

Please find below Ki measurements for 5-hydroxytryptamine receptor 2A (Rattus norvegicus, UniProt P14842), combined from several publications.
One number for each entry, in µM.

• O=C(NCCN1CCN(C(c2ccccc2)c2ccc(Cl)cc2)CC1)c1ccccn1 (stereo not given) = 0.504
• Fc1ccc2c(C3CCN(CCCOc4ccc(-c5nc6ccccc6s5)cc4)CC3)noc2c1 = 1.27
• O=C(N[C@H]1CC(=O)N(CCN2CCN(c3cccc(Cl)c3)CC2)C1=O)c1ccccc1 = 1.74
• O=C(c1ccc(F)cc1)C1CCN(CCC2Cc3ccccc3C2=O)CC1 (stereo not given) = 0.00251
• Cn1c(=O)c2c(ncn2CCCN2CCN(c3ccccc3)CC2)n(C)c1=O = 0.092

Return reported Ki values for all items listed beneath this line.
1. CC(C)Oc1ccccc1OCCNCc1cccc(-c2ccsc2)c1
2. CN1CCc2cc(OCCCN3CCC(c4noc5cc(F)ccc45)CC3)ccc2C1=O
3. O=C1C2CCCN2C(=O)N1CCCCNCCOc1cccc(Br)c1 (stereo not given)

1: 0.347; 2: 0.692; 3: 0.514
